Would you kindly list chemical recovery into PDMS for each of these compounds?
Experiment: chemical recovery into PDMS from spiked human plasma; higher = better extraction
Conditions: pooled human plasma; extraction method: PES with PDMS; equilibration time (d): 6
Give bare numbers, in %.

Reference set, count: 6
[[record]]
compound = "CCOC(=O)C(C)(C)Oc1ccc(Cl)cc1 [Clofibrate]"
value_kind = "chemical recovery into PDMS"
result_number = 43

[[record]]
compound = "O=P(c1ccccc1)(c1ccccc1)c1ccccc1 [Triphenylphosphine oxide]"
value_kind = "chemical recovery into PDMS"
result_number = 43.5

[[record]]
compound = "CC(C)(C)C(=O)C(Oc1ccc(Cl)cc1)n1ccnc1 (centres undefined)"
value_kind = "chemical recovery into PDMS"
result_number = 39.7

[[record]]
compound = "N#Cc1nn(-c2c(Cl)cc(C(F)(F)F)cc2Cl)c(N)c1C(F)(F)F"
value_kind = "chemical recovery into PDMS"
result_number = 34.8

[[record]]
compound = "CCCCCCCCCCCC(=O)N(CCO)CCO [Lauryl diethanolamide]"
value_kind = "chemical recovery into PDMS"
result_number = 26.3

[[record]]
compound = "C#C[C@]1(OC(C)=O)CC[C@H]2[C@@H]3CCC4=CC(=NO)CC[C@@H]4[C@H]3CC[C@@]21CC (mixture of isomers) [Norgestimate]"
value_kind = "chemical recovery into PDMS"
result_number = 13.5


Record chemical recovery into PDMS per entry; entries follow.
1. Brc1cc(Br)c(Oc2cc(Br)c(Br)cc2Br)c(Br)c1
2. CCCC1O[C@@H]2C[C@H]3[C@@H]4CCC5=CC(=O)C=C[C@]5(C)[C@H]4[C@@H](O)C[C@]3(C)[C@]2(C(=O)CO)O1 (some centres undefined) [Budesonide]
3. NC(=O)N1c2ccccc2C=Cc2ccccc21 [Carbamazepine]

66.7
22.6
30.7

----------
Assay: chemical recovery into PDMS from spiked human plasma; higher = better extraction
Conditions: pooled human plasma; extraction method: PES with PDMS; equilibration time (d): 1
VALUE_KIND: chemical recovery into PDMS (%)
Give bare numbers, in %.

Reference set, count: 3
[[record]]
compound = "Fc1ccc(Oc2ccnc3cc(Cl)cc(Cl)c23)cc1"
result_number = 48

[[record]]
compound = "CC(CCl)OP(=O)(OC(C)CCl)OC(C)CCl (centres undefined) [Tris(1-chloro-2-propyl)phosphate]"
result_number = 34.1

[[record]]
compound = "c1ccc2c(c1)=c1ccc3c4c(ccc=2c14)=c1ccccc1=3"
result_number = 70.5


Record chemical recovery into PDMS per entry; entries follow.
1. Cn1ncc(N)c(Cl)c1=O
2. CCCCCCCCc1cccc(Nc2ccccc2)c1CCCCCCCC
3. CC(=O)CCCCn1c(=O)c2c(ncn2C)n(C)c1=O
4. Nc1cn[nH]c(=O)c1Cl
5. CN[C@H]1CC[C@@H](c2ccc(Cl)c(Cl)c2)c2ccccc21

1: 1.07; 2: 3.85; 3: 17.2; 4: 0.0144; 5: 0.493

Record chemical recovery into PDMS per entry; entries follow.
1. CN1C(=O)C(O)N=C(c2ccccc2)c2cc(Cl)ccc21 (centres undefined)
2. Cc1ccc(-c2cc(C(F)(F)F)nn2-c2ccc(S(N)(=O)=O)cc2)cc1
3. CCCOC(=O)c1ccc(O)cc1
4. CCOC(=O)C1=C(C)NC(C)=C(C(=O)OC)C1c1cccc([N+](=O)[O-])c1 (centres undefined)
5. Clc1ccc2[nH]nnc2c1
6. CC1(C)O[C@@H]2C[C@H]3[C@@H]4C[C@H](F)C5=CC(=O)C=C[C@]5(C)[C@H]4[C@@H](O)C[C@]3(C)[C@]2(C(=O)CO)O1 [Flunisolide]
7. COC(=O)Nc1nc2cc(C(=O)c3ccccc3)ccc2[nH]1

11.2
1.77
11.6
13.4
0.3
5.95
13.7
